Origin of measurements: ChEMBL document CHEMBL1147620

- MEASURED_TARGET: UniProt P03372
- Sequence (P03372 whole entry): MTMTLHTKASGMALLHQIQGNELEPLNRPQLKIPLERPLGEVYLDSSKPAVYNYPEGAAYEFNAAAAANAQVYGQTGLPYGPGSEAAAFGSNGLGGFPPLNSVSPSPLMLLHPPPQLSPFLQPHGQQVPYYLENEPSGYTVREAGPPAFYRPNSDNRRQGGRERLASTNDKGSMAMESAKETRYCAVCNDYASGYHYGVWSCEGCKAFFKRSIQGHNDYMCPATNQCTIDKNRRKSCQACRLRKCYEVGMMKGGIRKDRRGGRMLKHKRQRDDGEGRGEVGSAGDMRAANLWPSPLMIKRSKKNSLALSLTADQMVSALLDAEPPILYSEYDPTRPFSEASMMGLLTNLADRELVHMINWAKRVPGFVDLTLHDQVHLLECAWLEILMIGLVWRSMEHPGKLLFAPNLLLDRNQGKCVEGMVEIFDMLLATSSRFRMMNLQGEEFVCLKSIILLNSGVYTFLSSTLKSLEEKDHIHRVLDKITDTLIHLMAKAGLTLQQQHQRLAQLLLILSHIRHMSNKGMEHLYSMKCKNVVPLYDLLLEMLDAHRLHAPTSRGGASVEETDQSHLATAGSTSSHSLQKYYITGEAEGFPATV
pIC50: −log10 of the molar value.
Label Not fulfilled if pIC50 falls below 6; label Fulfilled in every other case.

Inquiry: Could you tell me if the measured pIC50 of O=C1c2ccc(O)cc2O[C@H](c2ccc(OCCN3CCCCC3)cc2)[C@@H]1c1ccccc1 reaches 6 or more?
Reply text: Fulfilled

Inquiry: API: above_or_equal(metric=pIC50, cutoff=6) for item CCCCCc1cc(O)cc2c1C(=O)[C@@H](c1ccc(O)cc1)[C@@H](c1ccc(OCCN3CCCCC3)cc1)O2
Reply text: Fulfilled

Inquiry: Form field: pIC50 at least 6? Entry: Cc1cc(O)cc2c1C(=O)[C@@H](c1ccc(O)cc1)[C@@H](c1ccc(OCCN3CCCCC3)cc1)O2
Reply text: Fulfilled

Inquiry: Reported pIC50 at or above 6? O=C1c2ccc(O)cc2O[C@H](c2ccc(OCCN3CCCCC3)cc2)[C@@H]1c1ccc(O)cc1
Reply text: Fulfilled

Inquiry: Quick check, pIC50 >= 6? C[C@@H]1C(=O)c2ccc(O)cc2O[C@@H]1c1ccc(OCCN2CCCCC2)cc1
Reply text: Not fulfilled

Inquiry: I'd appreciate it if you could say whether O=C1c2ccc(O)cc2O[C@H](c2ccc(O)cc2)[C@@H]1c1ccc(O)cc1 has pIC50 at least equal to 6.
Reply text: Fulfilled
